- ASSAYED_TARGET: HisAviTEV-hSTING (139-342) human REF-mutated protein (Homo sapiens)
- Construct: made in house; host or cells: E. coli Rosetta 2 (DE3), co-expressed with BirA (1-321)
- Sequence (Q86WV6 with tags, fused parts or gaps, change not shown): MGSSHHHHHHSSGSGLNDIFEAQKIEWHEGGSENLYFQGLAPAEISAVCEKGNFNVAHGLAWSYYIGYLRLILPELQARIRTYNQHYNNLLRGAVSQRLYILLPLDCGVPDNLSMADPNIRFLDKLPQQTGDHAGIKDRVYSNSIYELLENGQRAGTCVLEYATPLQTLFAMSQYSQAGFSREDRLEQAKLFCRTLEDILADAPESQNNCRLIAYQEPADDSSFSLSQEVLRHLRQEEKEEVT
- EXPERIMENTAL_DETAILS: Protein thermal shift assay, STING C-terminal binding domain protein
- PROTOCOL_CONDITIONS: test compound final concentration 0.5 mM
READOUT: ΔTm Hu-REF (°C)
One number for each entry, in °C.

Example molecules with recorded ΔTm Hu-REF:
MOLECULE	READOUT	RECORDED_NUMBER
Nc1nc2c(ncn2[C@@H]2O[C@@H]3COP(=O)(S)O[C@H]4[C@@H](O)[C@H](n5cc6c7c(ncnc75)NCCC6)O[C@@H]4COP(=O)(S)O[C@@H]2[C@@H]3O)c(=O)[nH]1 (single isomer, unassigned) [4b]	ΔTm Hu-REF	3.5
NCCNc1nc(N)c2ncn([C@@H]3O[C@@H]4COP(=O)(S)O[C@H]5[C@@H](O)[C@H](n6cc7c8c(ncnc86)NCCC7)O[C@@H]5COP(=O)(S)O[C@@H]3[C@@H]4F)c2n1 (single isomer, unassigned) [42b]	ΔTm Hu-REF	1.4
O=C(CO)NCCn1cnc2c(ncn2[C@@H]2O[C@@H]3COP(=O)(S)O[C@H]4[C@@H](O)[C@H](n5cc6c7c(ncnc75)NCCC6)O[C@@H]4COP(=O)(S)O[C@@H]2[C@@H]3O)c1=O (single isomer, unassigned) [7b]	ΔTm Hu-REF	2.8
O=C(CO)NCCn1cnc2c(ncn2[C@@H]2O[C@@H]3COP(=O)(S)O[C@H]4[C@@H](F)[C@H](n5cc6c7c(ncnc75)NCCC6)O[C@@H]4COP(=O)(S)O[C@@H]2[C@@H]3O)c1=O (single isomer, unassigned) [36b]	ΔTm Hu-REF	5.5

Exercise: Report measured ΔTm Hu-REF; entry is NCCn1cnc2c(ncn2[C@@H]2O[C@@H]3COP(=O)(S)O[C@H]4[C@@H](F)[C@H](n5cc6c7c(ncnc75)NCCC6)O[C@@H]4COP(=O)(S)O[C@@H]2[C@@H]3O)c1=O (single isomer, unassigned) [35b]
Solution: 5.8
